System: MS2 coat protein
Assay: apparent KD of MS2 coat protein; designed switch direction (-1 OFF switch, 1 ON switch): -1; higher = weaker reporter binding
Conditions: Eterna round: R95; input ligand: microRNA oligo, concentration not stated
Rule: apparent KD of MS2 coat protein under 40 nM gives label 0, otherwise label 1.

[[record]]
sequence_input = "CUCGAGUGAGGAUAUAUACUUCCAUCAUUUGAGAGAGAAGUAUAGAAGGCACAUGAGGAUCACCCAUGUAUAAA [Rierreis] (puzzle: Exclusion 4)"
label_class = "label 1"

[[record]]
sequence_input = "UUUAAUUUUUUUUUUUUACAAGCUUUUUGCUCGUCUUAUACAUGAGGAUCACCCAUGUAGAUGGGAGGUAAAUUAUC [JMF 75] (puzzle: Sensor v3, turn-off variant 2)"
label_class = "label 1"

[[record]]
sequence_input = "UUGAAGAUAGGAUAUACGAGGAGAGGAGAGAGAAGGUGAGGACAUGAGGAUCACCCAUGUAGAAGGAUCAGGAA [JR_Exclu2_Sub065] (puzzle: Exclusion 2)"
label_class = "label 1"

[[record]]
sequence_input = "GCAUACUAAGGAUAUACAUGAGGAUCACCCAUGUUGCCAAAUGGCAGCAUCACCUGGAGUAGAAGGUAGAUGUA [Atanbi] (puzzle: Exclusion 3)"
label_class = "label 0"

[[record]]
sequence_input = "AGUGCGUAUGUGAGGAUAUGCUGGUCCUUGGAUCAGCAGAAGGCACAUGAGGAUCACCCAUGUGGUGUCGUACA [salish99_Bmod_Ex4_006] (puzzle: Brourd's mod of Exclusion 4)"
label_class = "label 1"


###

Test system: K4 kissing-loop RNA reporter
Experiment: apparent KD of K4 kissing-loop reporter; higher = weaker reporter binding
Conditions: Eterna round: R107; input ligand: arginine 13.2 mM
Rule: apparent KD of K4 kissing-loop reporter under 300 nM gives F, otherwise T.

[[record]]
sequence_input = "CCAUCGCUAUUCGAUACCAGCUCCUUAGUGAUGUUAAGGUUUUACCCUCUGUAGGAGGGAAGCCCUUGGCAGCGAGUAGUGAUGG [#03 K4 Theophylline B Same State]"
label_class = "T"

[[record]]
sequence_input = "GCAGUGAUGUUGCACGAGUAGGCUGGAGUACGAGGACCGGUACGGCCGCCACUCGUACGAUAGUCGCUAAUUUAUGGAAUGGUGA [#08 K4 Tryptophan A Same State]"
label_class = "T"

[[record]]
sequence_input = "UGUCAUUGGUCUGAUACCAGUUAGCGCGAUAAGCGCAAAACUGGAGUGAUGUUCCCAAAUAACCCUUGGCAGCAGACCGAUGACU [MAT - Same State Theophlline B - Mod of Eli - D13]"
label_class = "F"

[[record]]
sequence_input = "UGUCAUUGGUCGGCCGCCACUGAAAUAAAAGAGUGAUGUUCUUAAAAGACGGACAAAGUCUGUCAUAGGACCGGGACCGAUGACU [TrypBS 24 #SwitchBubble #StaticStem]"
label_class = "T"

[[record]]
sequence_input = "CCAUUCUUUUACGAUACCAGUUUAAUAUAUUUAUUCAAAACCCUUGCCGAGUGAUGUUCGGACCCUUGGCAGCGUUUGCGAGAGG [ttedstkmullin]"
label_class = "T"

[[record]]
sequence_input = "GCCAGUGAUGUUGGCAUUUCGAGCCAUGAAGGAGCGCACGGAAGUGCAGGUAGGUCGCAUGGUACUUAGGAUAUUACCCUAAGUA [Isterare]"
label_class = "F"

[[record]]
sequence_input = "CAGCCCAAAUGGCGAGAAGUGUUCCUUAGUCGAGGACCGGUACGGCCGCCACUCGCUCUAAACAUUAGGAGUGAUGUUCCAUUAG"
label_class = "F"

[[record]]
sequence_input = "UCGAAGGAUGGAAGGAGCGCUCGUCAGUCCUGCGAGUGAUGUUCGUGGGUAAAUAUUCGCGAGCAGGUAGGUCGCCAUCUCGAAC [Erbemaa]"
label_class = "F"

[[record]]
sequence_input = "UGAUUUAACUGAAGGAGCGGCAAUUGAUAAGUAAAUAUAGUGAUGUUAUAUAAGAGAGAGAGCCAGGUAGGUCGCAGAGGGAGGA [ExArgB.I]"
label_class = "F"

[[record]]
sequence_input = "CGCAGUGAUGUUGCUAUAUUUCUUGAUUAACGAGGACCGGUACGGCCGCCACUCGAUUUCUCUCUAAUCCACUAUGUUGUUUAGA [JR_SSTryptoA_Sub002]"
label_class = "T"


###

Tested on: MS2 coat protein
Assay: apparent KD of MS2 coat protein; higher = weaker reporter binding
Settings: Eterna round: R107; input ligand: arginine 13.2 mM
Rule: apparent KD of MS2 coat protein under 30 nM gives False, otherwise True.

[[record]]
sequence_input = "UUAUAAGUACCGGUCCUCAGAUCCUCAUGACGAGGACCGGUACGGCCGCCACUCGAAACAUGAGGAUCACCCAUGUAAUAAUACU [Brourdmod08]"
label_class = "False"

[[record]]
sequence_input = "GAUAUGGAAACAUGUCAGAUCCUUACCGGUCGAGGACCGGUACGGCCGCCACUCGAAAAUAAUAAACAUGAGGAUCACCCAUGUA [Ex Tryptophan A 16]"
label_class = "False"

[[record]]
sequence_input = "AGCAUUGUAACAGAUACCAGACUUUUAAUGCCUCUAAUAACAUGAGGAUCACCCAUGUAUGUCCCUUGGCAGCUGUUAUGAUGCA [JR_ExcTheophyB_Sub008]"
label_class = "True"

[[record]]
sequence_input = "UCUUUCUAUGUAGAUACCAGCAUGUUAUAUUUCUAAUGACAUGAGGAUCACCCAUGUAAAUGCCCUUGGCAGCUACAUUUUCUUU [SSTHB #4]"
label_class = "False"

[[record]]
sequence_input = "UACUUACAUGAGGAUCACCCAUGUGGCGAAGGAGCGGCAUGAGGGCCAGGUAGGUCGCGCCAACAUACAUACAUGAGGAUCUCCC [Same State Arginine A 4]"
label_class = "True"


###

The reader will find reported apparent KD of K4 kissing-loop reporter values listed item by item below.
Test system: K4 kissing-loop RNA reporter;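 further: bound reporter read as fluorescence of individual clusters on recovered sequencing chips by microscopy, with normalized cluster intensities fitted with a binding model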
Test: apparent KD of K4 kissing-loop reporter; higher = weaker reporter binding
Settings: Eterna round: R107; input ligand: tryptophan 2.4 mM
RESULT TYPE: apparent KD of K4 kissing-loop reporter (nM)

[[record]]
sequence_input = "GGGUGUAGUGCGGCCGCCACUGUGAUAGUAGAAGAGUAUAGUGAUGUUAUAUAGGAUUAAUAGAAUAGGACCGGGCAUUAGACUU [#24 K4 Tryptophan B Same State]"
measured_on = "K4 kissing-loop RNA reporter"
result_type = "apparent KD of K4 kissing-loop reporter"
experimental_result = 209

[[record]]
sequence_input = "UUUCGCUUCGUCUGAUAUAAUUGGCCAGAAGGAGCGGUAGAAUUACCAGGUAGGUCGCUGGCCCAGUGAUGUUGGGACUAGCGUG [Isrianve]"
measured_on = "K4 kissing-loop RNA reporter"
result_type = "apparent KD of K4 kissing-loop reporter"
experimental_result = 94.1

[[record]]
sequence_input = "GUGGUUUACGUAGGAUAUCGAUGAUGAGUAAAUGGAGUGAUGUUCCGAGAUUGAAUAUGAGAUGAGCGAGAAGGGCGGUUUAUGC [FMN B Same State; Euporia Solution 2]"
measured_on = "K4 kissing-loop RNA reporter"
result_type = "apparent KD of K4 kissing-loop reporter"
experimental_result = 29.5

[[record]]
sequence_input = "AAAAUAAACCAGUGAUGUUGGUGUCCAGAUACCAGCGAUAAAAGUCGCCCUUGGCAGCUGUGGACGUACAAAAUAAGUACGUCCU [MatMod 2 - Jieux - Same State - Theophylline A]"
measured_on = "K4 kissing-loop RNA reporter"
result_type = "apparent KD of K4 kissing-loop reporter"
experimental_result = 678

[[record]]
sequence_input = "UUAGGAGUGGAAGGAUAUCCUGGUGUGGGUGAUGUUAGUGAUGUUGAAAGUGCAGUGAUGUUGUGCGGAGAAGGUCCGGUGUUGA [BDazzled - #8 - Exc. FMN B]"
measured_on = "K4 kissing-loop RNA reporter"
result_type = "apparent KD of K4 kissing-loop reporter"
experimental_result = 145

[[record]]
sequence_input = "UCGAAGGAUGGAAGGAGCGCUCGUCAGUCCUGCGAGUGAUGUUCGUGGGUAAAUAGUCGCGAGCAGGUAGGUCGCCAUCUUGAGC [Laxe]"
measured_on = "K4 kissing-loop RNA reporter"
result_type = "apparent KD of K4 kissing-loop reporter"
experimental_result = 109

[[record]]
sequence_input = "CCGCCAUCAUCAGAUACCAGACUGAUGGCGGUAACCGCCAAGCGAGUGAUGUUCGCAUCAGUCCCUUGGCAGCUGAUGAAGACUG [Theo B SS t4]"
measured_on = "K4 kissing-loop RNA reporter"
result_type = "apparent KD of K4 kissing-loop reporter"
experimental_result = 154

[[record]]
sequence_input = "UUAAUAUUGUCGGCCGCCACUGGAUAGUAAUUUGUAUAAUCUAUUUCAAAGUGAUGUUUUGAGUCCAGGACCGGGACAUUUGAUA [JR_Nu_ExcTryptoB_Sub030]"
measured_on = "K4 kissing-loop RNA reporter"
result_type = "apparent KD of K4 kissing-loop reporter"
experimental_result = 297

[[record]]
sequence_input = "AUUUAAUUAACUGAUACCAGACUUUUUGUUUUGAUAAUUACUAGUGAUGUUAGUGUUUCUGUCCCUUGGCAGCAGUAUCUACUUA [JR_ExcTheophyB_Sub017]"
measured_on = "K4 kissing-loop RNA reporter"
result_type = "apparent KD of K4 kissing-loop reporter"
experimental_result = 106

[[record]]
sequence_input = "UGAUAGGACAGAAGGAGCGGAGCUGGUCAAAGACCAGCAAUACGUUGAAAAGGAGUGAUGUUCCAGGUAGGUCGCUGUCCUAUCU [ArgBX 27 #SwitchBubble #StaticStem]"
measured_on = "K4 kissing-loop RNA reporter"
result_type = "apparent KD of K4 kissing-loop reporter"
experimental_result = 85.2

[[record]]
sequence_input = "UUUGAAAUGUCUGAUACCAGAGAAAAUAUAUGUAGUGAUGUUAUAUACAAAUUUAAUAAGCUCCCUUGGCAGCAGUAUGAAUUUU [AstrosExc-TheB#14]"
measured_on = "K4 kissing-loop RNA reporter"
result_type = "apparent KD of K4 kissing-loop reporter"
experimental_result = 582

